Entry source: patent US20230286973A1

tested on: IL-2-FL/Gaussia Luciferase; assay: Dox Induced IL2-FL-Gluc Assay; format: cell-based; conditions: ratio of IL2FLGluc IC50 to PD1ssGluc IC50
readout-type: 24 hr Dox Inducible IL2FLGluc 293FRT/TO: IL2/PD1
API note: the answer field is a bare number with no unit suffix.

Recorded results for 2 compounds are shown here.
>>> reported_measurement("COc1cc(N2CCC[C@@H]2c2csc(NC(=O)c3cccn3Cc3ccnc(F)c3)n2)ccc1OC1CCN(C(C)=O)CC1")
2.2
>>> reported_measurement("CN(C)CCOc1ccc(N2CCC[C@@H]2c2csc(NC(=O)c3cccn3Cc3ccnc(F)c3)n2)cc1")
2.8

Lab book: 24 hr Dox Inducible IL2FLGluc 293FRT/TO: IL2/PD1 of `Cc1cc(C(=O)Nc2nc([C@H]3CCCN3c3ccc(NC(=O)N(C)C)cc3)cs2)n(Cc2ccnc(F)c2)c1` noted as 2.5

Lab book: 24 hr Dox Inducible IL2FLGluc 293FRT/TO: IL2/PD1 of `CC(=O)N1CCC(Oc2ccc(N3CCC[C@@H]3c3csc(NC(=O)c4cccn4Cc4ccnc(F)c4)n3)c(Cl)c2)CC1` noted as 0.6

Lab book: 24 hr Dox Inducible IL2FLGluc 293FRT/TO: IL2/PD1 of `O=C(Nc1nc(/C=C/c2ncoc2C2CCCCC2)cs1)c1cccn1Cc1ccnc(F)c1` noted as 44

Lab book: 24 hr Dox Inducible IL2FLGluc 293FRT/TO: IL2/PD1 of `O=C(Nc1ccc(N2CCC[C@@H]2c2csc(NC(=O)c3cccn3Cc3ccnc(F)c3)n2)cc1)OC1COC1` noted as 3

Lab book: 24 hr Dox Inducible IL2FLGluc 293FRT/TO: IL2/PD1 of O=C1NC(/C=C/c2csc(NC(=O)c3cccn3Cc3ccncc3)n2)CO1 (stereo not shown) noted as 1

Lab book: 24 hr Dox Inducible IL2FLGluc 293FRT/TO: IL2/PD1 of `O=C(Nc1nc([C@H]2CCCN2c2ccc(OC3COC3)cc2)cs1)c1cccn1Cc1ccncc1` noted as 1.9

Lab book: 24 hr Dox Inducible IL2FLGluc 293FRT/TO: IL2/PD1 of CC1CCc2c(/C=C/c3csc(NC(=O)c4cccn4Cc4ccnc(F)c4)n3)ncn2C1 (stereo not shown) noted as 74
